Origin of values: paper PMC12416549

# ASSAYED SYSTEM: T1, TNFR1 (Homo sapiens, UniProt P19438)
# T1 chain: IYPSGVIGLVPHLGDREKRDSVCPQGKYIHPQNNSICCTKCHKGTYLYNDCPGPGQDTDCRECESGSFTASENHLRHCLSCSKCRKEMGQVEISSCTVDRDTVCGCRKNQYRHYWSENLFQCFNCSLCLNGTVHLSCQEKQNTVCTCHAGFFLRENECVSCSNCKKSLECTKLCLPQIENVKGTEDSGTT
# ASSAY DETAILS: yeast display SC50
MEASURED PROPERTY: apparent Kd (screen) (nM)
Give the number; nM is assumed, so skip it.

## Input Which measured apparent Kd (screen) value corresponds to A42M (designed binder) MTLQELLREEALRRAEAEAFRYALELLAEKFPEQKEYLLDLMEEIESQIRSLSGVDVEDVRKFLDKEWAWVKELLAEHPAELAEVEAARAARLAELRAEVEAKVAA ?
## Output 2.48

## Input Which measured apparent Kd (screen) value corresponds to E95L (designed binder) MTLQELLREEALRRAEAEAFRYALELLAEKFPEQKEYLLDLAEEIESQIRSLSGVDVEDVRKFLDKEWAWVKELLAEHPAELAEVEAARAARLALLRAEVEAKVAA ?
## Output 0.446

## Input Which measured apparent Kd (screen) value corresponds to V60I (designed binder) MTLQELLREEALRRAEAEAFRYALELLAEKFPEQKEYLLDLAEEIESQIRSLSGVDVEDIRKFLDKEWAWVKELLAEHPAELAEVEAARAARLAELRAEVEAKVAA ?
## Output 0.653

## Input Which measured apparent Kd (screen) value corresponds to D65P (designed binder) MTLQELLREEALRRAEAEAFRYALELLAEKFPEQKEYLLDLAEEIESQIRSLSGVDVEDVRKFLPKEWAWVKELLAEHPAELAEVEAARAARLAELRAEVEAKVAA ?
## Output 26.9

## Input Which measured apparent Kd (screen) value corresponds to V71W (designed binder) MTLQELLREEALRRAEAEAFRYALELLAEKFPEQKEYLLDLAEEIESQIRSLSGVDVEDVRKFLDKEWAWWKELLAEHPAELAEVEAARAARLAELRAEVEAKVAA ?
## Output 2.48

## Input Which measured apparent Kd (screen) value corresponds to S53R (designed binder) MTLQELLREEALRRAEAEAFRYALELLAEKFPEQKEYLLDLAEEIESQIRSLRGVDVEDVRKFLDKEWAWVKELLAEHPAELAEVEAARAARLAELRAEVEAKVAA ?
## Output 2.05

## Input Which measured apparent Kd (screen) value corresponds to Q4T (designed binder) MTLTELLREEALRRAEAEAFRYALELLAEKFPEQKEYLLDLAEEIESQIRSLSGVDVEDVRKFLDKEWAWVKELLAEHPAELAEVEAARAARLAELRAEVEAKVAA ?
## Output 0.593

## Input Which measured apparent Kd (screen) value corresponds to E73D (designed binder) MTLQELLREEALRRAEAEAFRYALELLAEKFPEQKEYLLDLAEEIESQIRSLSGVDVEDVRKFLDKEWAWVKDLLAEHPAELAEVEAARAARLAELRAEVEAKVAA ?
## Output 0.539
